# target_or_test_system: human beta2-adrenoceptor (Homo sapiens, UniProt P07550)
# Construct: expressed in transfected cells; host or cells: CHO cells
# Sequence (P07550 whole entry): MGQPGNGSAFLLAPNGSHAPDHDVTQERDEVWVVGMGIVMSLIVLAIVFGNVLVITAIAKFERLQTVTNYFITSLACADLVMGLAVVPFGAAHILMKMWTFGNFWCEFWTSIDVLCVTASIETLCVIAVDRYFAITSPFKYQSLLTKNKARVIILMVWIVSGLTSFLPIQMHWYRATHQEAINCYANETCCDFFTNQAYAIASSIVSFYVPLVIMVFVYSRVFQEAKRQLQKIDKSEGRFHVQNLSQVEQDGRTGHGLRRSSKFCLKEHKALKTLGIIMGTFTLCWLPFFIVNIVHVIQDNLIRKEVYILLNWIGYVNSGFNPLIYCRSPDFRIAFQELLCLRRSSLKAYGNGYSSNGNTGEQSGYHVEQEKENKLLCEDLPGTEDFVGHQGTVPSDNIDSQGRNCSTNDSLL
# measurement_protocol: 3H-CGP 12177 whole cell binding, beta2
# reported_conditions: 3H-CGP12177 whole-cell binding, CHO cells expressing human beta2-adrenoceptor; given as negative Log KD; read-out: Beta 2 Log KD (converted)
reported_property: Kd (µM)

Consider the worked cases shown below.
compound	Kd, µM
O=C(NCCNCC(O)c1cc2cc(OCCOC3CCCC3)ccc2o1)Nc1ccc(O)cc1 (stereo not drawn) [Example 63b]	44.7
O=C(NCCNCC(O)C1COc2ccccc2O1)Nc1cccc(Cl)c1 (stereo not drawn) [Example 46a]	0.0575
O=C(NCCNCC(O)COc1ccc2c(c1)OC(c1ccccc1)CC2=O)Nc1cccc(Cl)c1 (stereo not drawn) [Example 4a]	3.09

I = NC(=O)c1cc2cc(OCC(O)CNCCNC(=O)Nc3cccc(Cl)c3)ccc2o1 (stereo not drawn) [Example 24b]
II = O=C(NCCNCC(O)COc1ccc2oc(=O)ccc2c1)Nc1cccc(Cl)c1 (stereo not drawn) [Example 4c]
Prompt line: When their Kd values are compared, which is larger, I or II ? Respond using the label that marks the chosen record.
Response line: II
(II: 9.33 µM, I: 6.46 µM)

###

reported_property: melting point (°C)

compound	observed_result
Cc1ccc2cc(C(O)CNCCNC(=O)Nc3ccc(O)cc3)oc2c1 (centres unmarked) [Example 63c]	152.5
O=C(NCCNCC(O)COc1ccc2oc(=O)ccc2c1)Nc1cccc(Cl)c1 (centres unmarked)	160
COc1ccc2oc(C(O)CNCCNC(=O)Nc3ccc(O)cc3)cc2c1 (centres unmarked) [Example 63d]	151
O=C(NCCNCC(O)COc1ccc2oc(-c3ccccc3)cc(=O)c2c1)Nc1cccc(Cl)c1 (centres unmarked)	165
Cc1cc(=O)oc2ccc(OCC(O)CNCCNC(=O)Nc3cccc(Cl)c3)cc12 (centres unmarked)	158
CCOCc1cc2cc(OCC(O)CNCCNC(=O)Nc3ccc(O)cc3)ccc2o1 (centres unmarked) [Example 610a]	131.5
O=C(NCCNCC(O)C1COc2ccccc2O1)Nc1cccc(Cl)c1 (centres unmarked) [Example 46a]	141
O=C(NCCNCC(O)C1COc2ccccc2O1)Nc1ccc(O)cc1 (mixture of isomers) [Example 46b]	141

###

# target_or_test_system: human beta1-adrenoceptor (Homo sapiens)
# Construct: expressed in transfected cells; host or cells: CHO cells
# Sequence (P08588 whole entry): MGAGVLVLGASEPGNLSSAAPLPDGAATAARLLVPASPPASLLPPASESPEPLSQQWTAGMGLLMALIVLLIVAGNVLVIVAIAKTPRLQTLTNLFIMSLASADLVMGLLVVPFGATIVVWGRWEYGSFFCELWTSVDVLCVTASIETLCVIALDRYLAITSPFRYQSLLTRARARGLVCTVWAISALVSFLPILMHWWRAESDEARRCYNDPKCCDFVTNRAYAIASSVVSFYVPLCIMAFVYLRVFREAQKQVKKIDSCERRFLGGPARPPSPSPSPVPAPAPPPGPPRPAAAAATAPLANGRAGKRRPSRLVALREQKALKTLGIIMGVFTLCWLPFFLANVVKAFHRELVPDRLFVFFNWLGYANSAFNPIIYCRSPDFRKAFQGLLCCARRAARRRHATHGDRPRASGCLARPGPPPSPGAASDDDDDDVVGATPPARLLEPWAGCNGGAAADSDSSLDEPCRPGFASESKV
# measurement_protocol: 3H-CGP 12177 whole cell binding, beta1
# reported_conditions: 3H-CGP12177 whole-cell binding, CHO cells expressing human beta1-adrenoceptor; given as negative Log KD; read-out: Beta 1 Log KD (converted)
reported_property: Kd (nM)

compound	observed_result
O=C(NCCNCC(O)COc1ccc2oc(=O)ccc2c1)Nc1cccc(Cl)c1 (stereo not drawn)	355

1 = O=C(NCCNCC(O)COc1ccc2oc(-c3ccccc3)cc(=O)c2c1)Nc1cccc(Cl)c1 (stereo not drawn)
2 = Cc1cc(=O)oc2ccc(OCC(O)CNCCNC(=O)Nc3cccc(Cl)c3)cc12 (stereo not drawn)
Prompt line: Param pair: 1 , 2 . Output: the one whose Kd is numerically greater. Provide the label of your selected option as the answer.
Response line: 1

###

# target_or_test_system: human beta1-adrenoceptor (Homo sapiens)
# Construct: expressed in transfected cells; host or cells: CHO cells
# measurement_protocol: 3H-CGP 12177 whole cell binding, beta1
# reported_conditions: 3H-CGP12177 whole-cell binding, CHO cells expressing human beta1-adrenoceptor; given as negative Log KD; read-out: Beta 1 Log KD (converted)
reported_property: Kd (nM)

molecule	target_or_test_system	unit_annotation	Kd
Cc1ccc2cc(C(O)CNCCNC(=O)Nc3ccc(O)cc3)oc2c1 (stereo not drawn) [Example 63c]	human beta1-adrenoceptor (Homo sapiens)	nM	46.8
NC(=O)c1cc2cc(OCC(O)CNCCNC(=O)Nc3cccc(Cl)c3)ccc2o1 (stereo not drawn) [Example 24b]	human beta1-adrenoceptor (Homo sapiens)	nM	501
O=C(NCCNCC(O)C1COc2ccccc2O1)Nc1cccc(Cl)c1 (stereo not drawn) [Example 46a]	human beta1-adrenoceptor (Homo sapiens)	nM	3.98
O=C(NCCNCC(O)c1cc2cc(OCCOC3CCCC3)ccc2o1)Nc1ccc(O)cc1 (stereo not drawn) [Example 63b]	human beta1-adrenoceptor (Homo sapiens)	nM	155
O=C(NCCNCC(O)C1COc2ccccc2O1)Nc1ccc(O)cc1 (mixture of isomers) [Example 46b]	human beta1-adrenoceptor (Homo sapiens)	nM	11

I = COc1ccc2oc(C(O)CNCCNC(=O)Nc3ccc(O)cc3)cc2c1 (stereo not drawn) [Example 63d]
II = O=C(NCCNCC(O)C1Cc2cc(OCCOC3CCCC3)ccc2O1)Nc1ccc(O)cc1 (stereo not drawn) [Example 63a]
Prompt line: // pick larger Kd from pair: I vs II Lab log: write the label of the selected item as the result.
Response line: II

1 = CCOCc1cc2cc(OCC(O)CNCCNC(=O)Nc3ccc(O)cc3)ccc2o1 (stereo not drawn) [Example 610a]
2 = O=C(NCCNCC(O)COc1ccc2c(c1)OC(c1ccccc1)CC2=O)Nc1cccc(Cl)c1 (stereo not drawn)
Prompt line: Between the entries labelled 1 and 2 , which has a larger Kd value on record? Response format: the label of the selected entry.
Response line: 2
